Biological target: UniProt:P41143
Sequence (P41143 whole entry): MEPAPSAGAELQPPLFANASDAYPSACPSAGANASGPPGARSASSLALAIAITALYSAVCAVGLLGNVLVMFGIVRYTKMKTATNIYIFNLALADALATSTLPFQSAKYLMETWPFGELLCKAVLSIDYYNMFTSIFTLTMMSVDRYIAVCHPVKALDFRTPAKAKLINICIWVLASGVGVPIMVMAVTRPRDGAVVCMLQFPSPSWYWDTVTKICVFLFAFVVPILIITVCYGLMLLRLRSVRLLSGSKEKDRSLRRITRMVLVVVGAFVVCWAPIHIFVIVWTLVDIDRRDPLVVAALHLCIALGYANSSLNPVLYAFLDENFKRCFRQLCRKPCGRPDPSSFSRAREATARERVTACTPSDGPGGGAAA
Experiment: Radioligand binding assay at δ opioid receptor
Settings: Ki^δ (nM)
Non-standard residues stand in square brackets, D forms with d. Residues, ends and D or L forms follow the SMILES beside them. *: point of attachment. NH(3,5-(CF3)2-benzyl) = FC(F)(F)c1cc(CN*)cc(C(F)(F)F)c1; NMeF = CN[C@@H](Cc1ccccc1)C(=O)O
attribute_measured: Ki (nM)
Provide only the numeric value, understood in nM.

Here are 2 molecules together with their reported answers.
- molecule: "Cc1cc(O)cc(C)c1C[C@H](N)C(=O)N[C@H](C)C(=O)NCC(=O)N(C)[C@@H](Cc1ccc(F)cc1)C(=O)N[C@@H](CCC(N)=O)C(=O)N1CCC[C@H]1C(=O)N[C@@H](CC(C)C)C(=O)N[C@@H](Cc1c[nH]c2ccccc12)C(=O)NCc1cc(C(F)(F)F)cc(C(F)(F)F)c1"
  Ki, nM: 0.2
- molecule: "CC(C)C[C@H](NC(=O)[C@@H]1CCCN1C(=O)CNC(=O)[C@H](CCC(N)=O)NC(=O)[C@H](Cc1ccccc1)N(C)C(=O)CNC(=O)[C@@H](C)NC(=O)[C@@H](N)Cc1ccc(O)cc1)C(=O)N[C@@H](Cc1c[nH]c2ccccc12)C(=O)NCc1cc(C(F)(F)F)cc(C(F)(F)F)c1 [AKG-SK-145] (H-Y[dA]G[NMeF]QGPLW-{NH(3,5-(CF3)2-benzyl)})"
  Ki, nM: 6

--- query ---
Q: // fetch Ki given entry `Cc1cc(O)cc(C)c1C[C@H](N)C(=O)N[C@H](C)C(=O)NCC(=O)N[C@@H](Cc1ccccc1)C(=O)N1CCC[C@H]1C(=O)N[C@@H](CC(C)C)C(=O)N[C@@H](Cc1c[nH]c2ccccc12)C(=O)NCc1cc(C(F)(F)F)cc(C(F)(F)F)c1`
Ans: 1

From: patent US11141452B2
